Test system: VDR homodimer (NR concentration 270 nM)
Experiment: PBM binding z-score (relative to random genomic background probes); higher = stronger binding; sequences stand for … in GC…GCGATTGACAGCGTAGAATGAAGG
Classification field: enter met for PBM binding z-score values not below 0.9, not met for values below it.

INSERT INTO results (residue_string, category) VALUES
  ('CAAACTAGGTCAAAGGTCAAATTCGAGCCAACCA', 'met'),
  ('TCTCTTAGTTGAAGGGCAACCGACGAGTCCGTTT', 'met'),
  ('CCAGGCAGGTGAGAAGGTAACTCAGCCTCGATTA', 'not met'),
  ('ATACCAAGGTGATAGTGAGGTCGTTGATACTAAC', 'met'),
  ('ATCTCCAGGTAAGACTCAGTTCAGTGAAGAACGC', 'met'),
  ('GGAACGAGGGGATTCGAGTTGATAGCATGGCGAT', 'not met'),
  ('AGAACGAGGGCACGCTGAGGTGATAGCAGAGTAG', 'met'),
  ('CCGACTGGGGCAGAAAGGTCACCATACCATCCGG', 'met'),
  ('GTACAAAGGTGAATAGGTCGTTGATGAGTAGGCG', 'not met'),
  ('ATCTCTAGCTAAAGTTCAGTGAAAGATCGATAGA', 'met'),
  ('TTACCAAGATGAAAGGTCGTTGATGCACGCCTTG', 'met'),
  ('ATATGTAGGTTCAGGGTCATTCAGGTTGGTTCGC', 'met'),
  ('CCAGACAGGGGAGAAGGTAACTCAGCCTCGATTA', 'not met'),
  ('CGTCCAAGGTCAAAGGTCTGTGAAGAGATGACGG', 'met'),
  ('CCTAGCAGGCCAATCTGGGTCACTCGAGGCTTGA', 'not met'),
  ('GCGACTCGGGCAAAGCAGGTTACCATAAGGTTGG', 'not met'),
  ('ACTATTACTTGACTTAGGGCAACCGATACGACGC', 'not met'),
  ('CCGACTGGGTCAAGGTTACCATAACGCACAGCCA', 'met'),
  ('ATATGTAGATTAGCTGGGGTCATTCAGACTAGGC', 'met'),
  ('ATACCAAGGTGATCGTCAGGTCGTTGATACTAAC', 'met'),
  ('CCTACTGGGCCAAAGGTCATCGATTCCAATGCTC', 'met'),
  ('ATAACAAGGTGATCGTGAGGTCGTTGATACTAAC', 'met'),
  ('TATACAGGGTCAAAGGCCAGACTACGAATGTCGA', 'met'),
  ('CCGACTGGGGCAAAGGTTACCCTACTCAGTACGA', 'not met'),
  ('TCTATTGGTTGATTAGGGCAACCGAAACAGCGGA', 'not met'),
  ('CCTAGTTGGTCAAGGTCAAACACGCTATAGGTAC', 'met'),
  ('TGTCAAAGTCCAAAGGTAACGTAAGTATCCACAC', 'not met'),
  ('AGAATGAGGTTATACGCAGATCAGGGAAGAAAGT', 'met'),
  ('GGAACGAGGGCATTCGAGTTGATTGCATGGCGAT', 'met'),
  ('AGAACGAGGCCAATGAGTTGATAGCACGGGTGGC', 'met'),
  ('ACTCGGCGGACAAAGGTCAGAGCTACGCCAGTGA', 'not met'),
  ('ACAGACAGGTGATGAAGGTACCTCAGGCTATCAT', 'not met'),
  ('TCATATAGGTAAACAGGAGAAAGTCCGTAAGTTA', 'not met'),
  ('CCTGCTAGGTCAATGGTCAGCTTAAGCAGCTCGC', 'not met'),
  ('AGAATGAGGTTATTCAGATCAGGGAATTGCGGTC', 'met'),
  ('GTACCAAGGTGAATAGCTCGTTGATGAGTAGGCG', 'not met'),
  ('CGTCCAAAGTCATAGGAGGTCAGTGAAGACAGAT', 'met'),
  ('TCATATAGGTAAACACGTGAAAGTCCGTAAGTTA', 'not met'),
  ('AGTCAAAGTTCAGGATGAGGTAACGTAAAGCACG', 'met'),
  ('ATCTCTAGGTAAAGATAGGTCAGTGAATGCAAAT', 'not met'),
  ('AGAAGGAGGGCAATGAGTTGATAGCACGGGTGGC', 'met'),
  ('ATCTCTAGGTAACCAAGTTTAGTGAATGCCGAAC', 'not met'),
  ('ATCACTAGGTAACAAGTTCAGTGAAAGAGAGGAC', 'met'),
  ('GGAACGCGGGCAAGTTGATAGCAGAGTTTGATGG', 'not met'),
  ('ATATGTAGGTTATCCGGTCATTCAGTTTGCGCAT', 'met'),
  ('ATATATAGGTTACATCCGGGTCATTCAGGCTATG', 'met'),
  ('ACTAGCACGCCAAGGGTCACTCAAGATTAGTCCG', 'met');

The values you see were collected from the supplement of paper PMC6555819.
